# System: HepG2-TUBA1B-RELA
# method-notes: phenotypically active (imaging signature differs from DMSO and reproducible) at any of 0.3-9 uM (binary (1 = active, 0 = inactive)); higher = active
# stated-conditions: treatment time: 24 h
measurement-type: phenotypically active
Give a plain numeric answer without units written out.

Requested field: phenotypically active. Item: CS(=O)(=O)c1ccc(-c2nnc(/C=C/c3nnc(-c4ccc(C#N)cc4)o3)n2-c2ccccc2Cl)nc1
0

Reported phenotypically active, compound Cc1cc(C(C)Nc2ccccc2)c2nc(N3CCOCC3)cc(=O)n2c1 (stereo not drawn) : ____
0

Recorded phenotypically active of CNC(=O)c1cc(Oc2ccc(NC(=O)Nc3ccc(Cl)c(C(F)(F)F)c3)cc2)ccn1 [sorafenib] , please.
1

Entry under review: COc1cc([C@@H]2c3cc4c(cc3[C@@H](O[C@@H]3O[C@@H]5CO[C@@H](C)O[C@H]5[C@H](O)[C@H]3O)[C@H]3COC(=O)[C@H]23)OCO4)cc(OC)c1O [etoposide] . Reported phenotypically active?
1

Data request, read-out phenotypically active, for N=C(N)NC(=O)Cc1c(Cl)cccc1Cl [guanfacine]
0

---

# Test system: HepG2-CANX-COX4
# method-notes: phenotypically active (imaging signature differs from DMSO and reproducible) at any of 0.3-9 uM (binary (1 = active, 0 = inactive)); higher = active
# stated-conditions: treatment time: 24 h
Where a name gives a salt, the structure may show the parent alone.
The reply should name one outcome from active, inactive

Worked cases, answers included:
molecule | answer-label
COC(=O)[C@H]1[C@H]2C[C@H]3c4[nH]c5ccccc5c4CCN3C[C@@H]2CC[C@@H]1O [Corynanthine hydrochloride] | inactive
Cc1nc2c(O)cccc2c(=O)[nH]1 | inactive
Oc1ccc(-c2nc(-c3ccc(F)cc3)c(-c3ccncc3)[nH]2)cc1 | active

Would you mind telling me which call this test gave COc1ccc(C(=O)Nc2sc3c(c2C(N)=O)CCCC3)cc1OC ?
inactive

Could you check what this test reported for O=C(Nc1c(Cl)cncc1Cl)c1ccc(OC(F)F)c(OCC2CC2)c1 ?
inactive

Give the logged outcome of this assay for the following molecule: CC(=O)N1CCN(C)CC1 [1-Acetyl-4-methylpiperazine hydrochloride]
inactive

Fill in: this test's call for Cc1ccc(-c2cc(C(F)(F)F)nn2-c2ccc(S(N)(=O)=O)cc2)cc1 is ___
inactive

Query: recorded result category for Clc1cccc(Nc2nnc(-c3ccccc3)c3ccccc23)c1 in this test
inactive

Hi, sorry to bother you, what did the test record for O=C(OC12CC3CC(CC(C3)C1)C2)c1ccc(NCc2cc(O)ccc2O)cc1 ?
active

Which outcome was assigned to COc1cc2c(cc1NS(=O)(=O)c1ccc(Br)cc1C)n(C)c(=O)n2C in this test?
active

What classification did C[C@H](Cc1cc2c(c(C(N)=O)c1)N(CCCO)CC2)NCCOc1ccccc1OCC(F)(F)F end up with in this test?
inactive

---

# System: WPMY1-TP53BP1-CLTA
# method-notes: phenotypically active (imaging signature differs from DMSO and reproducible) at any of 0.3-9 uM (binary (1 = active, 0 = inactive)); higher = active
# stated-conditions: treatment time: 24 h
Structures can show the parent of a compound that is named as a salt.
Output constraint: value belongs to active, inactive

Look over these answered cases.
compound | answer-label
COc1cc2nccc(Oc3ccc(NC(=O)C4(C(=O)Nc5ccc(F)cc5)CC4)cc3)c2cc1OC | inactive
C[N+](C)(C)CC[N+]1(C)Cc2c(Cl)c(Cl)c(Cl)c(Cl)c2C1 [Chlorisondamine diiodide] | inactive
COCCc1ccc(OCC(O)CNC(C)C)cc1 (configuration not stated) | inactive
Clc1cccc(Nc2nnc(-c3ccccc3)c3ccccc23)c1 | inactive
COc1ccc2c3c1O[C@H]1C[C@@H](O)C=C[C@@]31CCN(C)C2 | inactive
CCCCCN(C)CCC(O)(P(=O)(O)O)P(=O)(O)O [ibandronate] | inactive
N=C(N)NC(=O)Cc1c(Cl)cccc1Cl | inactive
Oc1cccc(-c2nc(N3CCOCC3)c3oc4ncccc4c3n2)c1 [PI 103 hydrochloride] | active
S=C(S)N1CCCC1 [Pyrrolidinedithiocarbamate ammonium] | inactive
COc1ccc2c3c(c(=O)n(C)c2c1OC)C=CC(C)(C)O3 | active

Please let me know the test result on file for CC(C(=O)Nc1cccc(/N=C/c2c(O)ccc3ccccc23)c1)c1ccccc1 (configuration not stated) [Salermide] .
inactive

I'd appreciate the recorded outcome for Cn1cnc([N+](=O)[O-])c1Sc1ncnc2nc[nH]c12 from this test.
inactive

How was CN[C@H]1CC[C@@H](c2ccc(Cl)c(Cl)c2)c2ccccc21 classified in this test?
active

What did the test return for O=C1c2c(O)cccc2Cc2cccc(O)c21 ?
inactive

Just for reference, the supplement of paper PMC7411054 is where these values come from.
